Tested on: PAXF1657 KO Clone #4
Experiment: 7-day cellular proliferation assay (CellTiter-Glo), PAXF1657 KO Clone #4
Format: cell-based
Details: proliferation, read-out: GeoMean IC50 (uM) PAXF1657 KO Clone #4
metric_name: IC50 (µM)

INSERT INTO measurements (molecule, metric_name, comparison_symbol, readout_value) VALUES
  ('CN[C@@H](C)C(=O)N[C@H](C(=O)N1CCC[C@H]1c1nc(C(=O)c2cccc(OCc3cn(CCCCCCOc4cccc([C@@H](C)NC(=O)c5cccc(NCc6nnc(-c7ccncn7)n6C)c5)c4)nn3)c2)cs1)C1CCCCC1 [Compound D105]', 'IC50', '=', 3.72),
  ('Cc1ncsc1-c1ccc(CNC(=O)[C@@H]2C[C@@H](O)CN2C(=O)[C@@H](NC(=O)CCCOCCOCCOCCCCCCCCOc2ccc([C@@H](C)NC(=O)c3cccc(NCc4nnc(-c5ccncn5)n4C)c3)cc2)C(C)(C)C)cc1 [Compound D148]', 'IC50', '=', 8.31),
  ('Cn1c(CNc2cccc(C(=O)NCc3cccc(OCCCCCCOCCOCCOCCC(=O)Nc4cccc5c4CN(C4CCC(=O)NC4=O)C5=O)c3)c2)nnc1-c1ccncn1 (centres unmarked) [Compound D195]', 'IC50', '>', 30),
  ('C[C@@H](NC(=O)c1cccc(NCc2nnc(-c3ccncn3)n2C)c1)c1cccc(OCC(=O)N2CCN(c3ccc4c(c3)CN(C3CCC(=O)NC3=O)C4=O)CC2)c1 (some centres unmarked) [Compound D176]', 'IC50', '>', 30),
  ('C[C@@H](NC(=O)c1cccc(NCc2nnc(-c3ccncn3)n2C)c1)c1ccc(OCCCCCCOCCOCCOCCCC(=O)N2CCN(c3ccc4c(c3)CN(C3CCC(=O)NC3=O)C4=O)CC2)cc1 (some centres unmarked) [Compound D124]', 'IC50', '>', 30);

====

As shown below, each of these molecules has a reported inhibition at 0.3 µM value.
Target: GRK2 (Homo sapiens)
Sequence (P25098 1-689): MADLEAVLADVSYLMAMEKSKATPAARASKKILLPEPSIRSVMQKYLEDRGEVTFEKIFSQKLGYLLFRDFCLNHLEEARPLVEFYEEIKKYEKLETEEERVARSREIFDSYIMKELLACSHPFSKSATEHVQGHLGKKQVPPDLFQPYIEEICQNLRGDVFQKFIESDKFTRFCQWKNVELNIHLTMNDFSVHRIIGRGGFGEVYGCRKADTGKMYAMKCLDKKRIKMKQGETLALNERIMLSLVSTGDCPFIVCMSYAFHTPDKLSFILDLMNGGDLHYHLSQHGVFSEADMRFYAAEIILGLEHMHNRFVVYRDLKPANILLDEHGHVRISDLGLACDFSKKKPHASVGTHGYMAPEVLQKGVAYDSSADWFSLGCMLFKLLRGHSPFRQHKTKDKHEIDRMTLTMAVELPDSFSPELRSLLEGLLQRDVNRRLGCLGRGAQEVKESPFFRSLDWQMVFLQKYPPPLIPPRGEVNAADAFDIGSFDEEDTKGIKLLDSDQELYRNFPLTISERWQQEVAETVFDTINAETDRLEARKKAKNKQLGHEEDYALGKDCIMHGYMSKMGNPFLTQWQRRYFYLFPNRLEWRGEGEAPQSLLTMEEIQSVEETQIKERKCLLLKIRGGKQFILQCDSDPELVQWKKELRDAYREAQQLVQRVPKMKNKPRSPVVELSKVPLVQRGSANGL
Assay: GRK2 Degradation Assay and Western Blot in PAXF1657 cells
Format: cell-based
Parameters: endogenous in cells; host or cells: PAXF1657
Conditions: Conc 0.3 uM; read-out: Degradation Assay - 3 point: Degradation (%)
metric_name: inhibition at 0.3 µM (%)

INSERT INTO results (structure_smiles_string, readout_value) VALUES
  ('Cc1ncsc1-c1ccc(CNC(=O)[C@@H]2C[C@@H](O)CN2C(=O)[C@@H](NC(=O)CCCCCOCCOCCOCCCCCCOc2cccc([C@@H](C)NC(=O)c3cccc(NCc4nnc(-c5ccncn5)n4C)c3)c2)C(C)(C)C)cc1', 51),
  ('Cc1ncsc1-c1ccc(CNC(=O)[C@@H]2C[C@@H](O)CN2C(=O)[C@@H](NC(=O)COCCCOCCCCCOc2ccc(CNC(=O)c3cccc(NCc4nnc(-c5ccncn5)n4C)c3)cc2)C(C)(C)C)cc1', 0.276);

====

Biological target: GRK2 (Homo sapiens)
Assay: GRK2 Degradation Assay and Western Blot in PAXF1657 cells
Assay type: cell-based
Parameters: endogenous in cells; host or cells: PAXF1657
Details: Conc 0.3 uM; read-out: Degradation Assay - 3 point: Degradation (%)
Structures can show the parent of a compound that is named as a salt.
metric_name: inhibition at 0.3 µM

INSERT INTO assay_data (compound, metric_name, readout_value) VALUES
  ('Cc1ncsc1-c1ccc([C@H](C)NC(=O)[C@@H]2C[C@@H](O)CN2C(=O)[C@@H](NC(=O)COCCCOCCCCCOc2cccc([C@@H](C)NC(=O)c3cccc(NCc4nnc(-c5ccncn5)n4C)c3)c2)C(C)(C)C)cc1 [Compound D169]', 'inhibition at 0.3 µM', '23.6%'),
  ('Cc1ncsc1-c1ccc(CNC(=O)[C@@H]2C[C@@H](O)CN2C(=O)[C@@H](NC(=O)CCCOCCOCCOCCCCCCCCOc2ccc([C@@H](C)NC(=O)c3cccc(NCc4nnc(-c5ccncn5)n4C)c3)cc2)C(C)(C)C)cc1 [Compound D148]', 'inhibition at 0.3 µM', '46.7%'),
  ('Cn1c(CNc2cccc(C(=O)NCc3cccc(OCCCCCOCCCOCC(=O)N4CCN(c5ccc6c(c5)CN(C5CCC(=O)NC5=O)C6=O)CC4)c3)c2)nnc1-c1ccncn1 (stereo not shown) [Compound D189]', 'inhibition at 0.3 µM', '2.78%'),
  ('C[C@@H](NC(=O)c1cccc(NCc2nnc(-c3ccncn3)n2C)c1)c1ccc(OCCCCCCOCCOCCOCCC(=O)N2CCN(c3cc4c(cc3F)C(=O)N(C3CCC(=O)NC3=O)C4=O)CC2)cc1 (stereo partly shown) [Compound D137]', 'inhibition at 0.3 µM', '71.2%'),
  ('C[C@@H](NC(=O)c1cccc(NCc2nnc(-c3ccncn3)n2C)c1)c1cccc(OCCCCN2CCN(c3ccc4c(c3)CN(C3CCC(=O)NC3=O)C4=O)CC2)c1 (stereo partly shown) [Compound D129]', 'inhibition at 0.3 µM', '79.8%'),
  ('C[C@@H](NC(=O)c1cccc(NCc2nnc(-c3ccncn3)n2C)c1)c1cccc(C(=O)N2CC(N3CCN(c4ccc5c(c4)CN(C4CCC(=O)NC4=O)C5=O)CC3)C2)c1 (stereo partly shown) [Compound D172]', 'inhibition at 0.3 µM', '-7.47%'),
  ('Cc1ncsc1-c1ccc(CNC(=O)[C@@H]2C[C@@H](O)CN2C(=O)C(NC(=O)CCCCCOCCOCCOCCCCCCOc2ccc3c(c2)[C@H](NC(=O)c2cccc(NCc4nnc(-c5ccncn5)n4C)c2)CCO3)C(C)(C)C)cc1 (stereo partly shown) [Compound D186]', 'inhibition at 0.3 µM', '20%'),
  ('C[C@H](NC(=O)c1cccc(NCc2nnc(-c3ccncn3)n2C)c1)c1ccc(OCCCCN2CCN(c3ccc4c(c3)CN(C3CCC(=O)NC3=O)C4=O)CC2)cc1 (stereo partly shown) [Compound D117, hydrochloride]', 'inhibition at 0.3 µM', '12.3%'),
  ('C[C@@H](NC(=O)c1cccc(NCc2nnc(-c3ccncn3)n2C)c1)c1cccc(OCCCCCCOCCOCCOCCCC(=O)Nc2cccc3c2CN(C2CCC(=O)NC2=O)C3=O)c1 (stereo partly shown) [Compound D163]', 'inhibition at 0.3 µM', '74.4%'),
  ('C[C@@H](NC(=O)c1cccc(NCc2nnc(-c3ccncn3)n2C)c1)c1cccc(C(=O)N2CCC(CCN3CCN(c4ccc5c(c4)CN(C4CCC(=O)NC4=O)C5=O)CC3)CC2)c1 (stereo partly shown) [Compound D120]', 'inhibition at 0.3 µM', '90.8%'),
  ('C[C@@H](NC(=O)c1cccc(NCc2nnc(-c3ccncn3)n2C)c1)c1cccc(OCCCCCCOCC(=O)N2CCN(c3cc4c(cc3F)C(=O)N(C3CCC(=O)NC3=O)C4=O)CC2)c1 (stereo partly shown) [Compound D133]', 'inhibition at 0.3 µM', '57.7%'),
  ('Cn1c(CNc2cccc(C(=O)N[C@@H]3CCOc4ccc(OCCCCCCOCCOCCOCCCCCC(=O)Nc5cccc6c5CN(C5CCC(=O)NC5=O)C6=O)cc43)c2)nnc1-c1ccncn1 (stereo partly shown) [Compound D187]', 'inhibition at 0.3 µM', '11.8%'),
  ('C[C@@H](NC(=O)c1cccc(NCc2nnc(-c3ccncn3)n2C)c1)c1cccc(OCCCCCCOCCOCCNc2cccc3c2CN(C2CCC(=O)NC2=O)C3=O)c1 (stereo partly shown) [Compound D143]', 'inhibition at 0.3 µM', '88%'),
  ('C[C@@H](NC(=O)c1cccc(NCc2nnc(-c3ccncn3)n2C)c1)c1cccc(OCCCCCCOCCOCCNc2ccc3c(c2)CN(C2CCC(=O)NC2=O)C3=O)c1 (stereo partly shown) [Compound D141]', 'inhibition at 0.3 µM', '89%'),
  ('C[C@@H](NC(=O)c1cccc(NCc2nnc(-c3ccncn3)n2C)c1)c1cccc(OCCCCCOCCCOCC(=O)Nc2cccc3c2CN(C2CCC(=O)N(C)C2=O)C3=O)c1 (stereo partly shown) [Compound D194]', 'inhibition at 0.3 µM', '25%'),
  ('C[C@@H](NC(=O)c1cccc(NCc2nnc(-c3ccncn3)n2C)c1)c1cccc(OCCCCCOCCCOCCOc2cccc3c2CN(C2CCC(=O)NC2=O)C3=O)c1 (stereo partly shown) [Compound D198]', 'inhibition at 0.3 µM', '83.9%'),
  ('C[C@@H](NC(=O)c1cccc(NCc2nnc(-c3ccncn3)n2C)c1)c1cccc(C(=O)N2CCC(CN3CCN(c4ccc5c(c4)CN(C4CCC(=O)NC4=O)C5=O)CC3)CC2)c1 (stereo partly shown) [Compound D122, hydrochloride]', 'inhibition at 0.3 µM', '84.9%'),
  ('C[C@@H](NC(=O)c1cccc(NCc2nnc(-c3ccncn3)n2C)c1)c1cccc(OCCCCCCOCCOCCN2CCN(c3cc4c(cc3F)C(=O)N(C3CCC(=O)NC3=O)C4=O)CC2)c1 (stereo partly shown) [Compound D140]', 'inhibition at 0.3 µM', '88%'),
  ('C[C@H](NC(=O)c1cccc(NCc2nnc(-c3ccncn3)n2C)c1)c1ccc(OCCCCCCOCCOCCOCCCCCC(=O)Nc2cccc3c2CN(C2CCC(=O)NC2=O)C3=O)cc1 (stereo partly shown) [Compound D152]', 'inhibition at 0.3 µM', '24%');
